- PROTOCOL_SUMMARY: Plasma protein binding in rat assessed as unbound fraction
- Assay type: ADME, cell-free

>  <STRUCTURE_NOTATION>
C[C@H]1CCCN1C(=O)c1nc(C(=O)NCC(C)(C)O)sc1-c1ccc(C(O)(C(F)(F)F)C(F)(F)F)c(Cl)c1Cl

>  <fraction unbound>
0.012

$$$$

---

- EXPERIMENTAL_TARGET: hERG (Homo sapiens, UniProt Q12809)
- Sequence (Q12809 whole entry): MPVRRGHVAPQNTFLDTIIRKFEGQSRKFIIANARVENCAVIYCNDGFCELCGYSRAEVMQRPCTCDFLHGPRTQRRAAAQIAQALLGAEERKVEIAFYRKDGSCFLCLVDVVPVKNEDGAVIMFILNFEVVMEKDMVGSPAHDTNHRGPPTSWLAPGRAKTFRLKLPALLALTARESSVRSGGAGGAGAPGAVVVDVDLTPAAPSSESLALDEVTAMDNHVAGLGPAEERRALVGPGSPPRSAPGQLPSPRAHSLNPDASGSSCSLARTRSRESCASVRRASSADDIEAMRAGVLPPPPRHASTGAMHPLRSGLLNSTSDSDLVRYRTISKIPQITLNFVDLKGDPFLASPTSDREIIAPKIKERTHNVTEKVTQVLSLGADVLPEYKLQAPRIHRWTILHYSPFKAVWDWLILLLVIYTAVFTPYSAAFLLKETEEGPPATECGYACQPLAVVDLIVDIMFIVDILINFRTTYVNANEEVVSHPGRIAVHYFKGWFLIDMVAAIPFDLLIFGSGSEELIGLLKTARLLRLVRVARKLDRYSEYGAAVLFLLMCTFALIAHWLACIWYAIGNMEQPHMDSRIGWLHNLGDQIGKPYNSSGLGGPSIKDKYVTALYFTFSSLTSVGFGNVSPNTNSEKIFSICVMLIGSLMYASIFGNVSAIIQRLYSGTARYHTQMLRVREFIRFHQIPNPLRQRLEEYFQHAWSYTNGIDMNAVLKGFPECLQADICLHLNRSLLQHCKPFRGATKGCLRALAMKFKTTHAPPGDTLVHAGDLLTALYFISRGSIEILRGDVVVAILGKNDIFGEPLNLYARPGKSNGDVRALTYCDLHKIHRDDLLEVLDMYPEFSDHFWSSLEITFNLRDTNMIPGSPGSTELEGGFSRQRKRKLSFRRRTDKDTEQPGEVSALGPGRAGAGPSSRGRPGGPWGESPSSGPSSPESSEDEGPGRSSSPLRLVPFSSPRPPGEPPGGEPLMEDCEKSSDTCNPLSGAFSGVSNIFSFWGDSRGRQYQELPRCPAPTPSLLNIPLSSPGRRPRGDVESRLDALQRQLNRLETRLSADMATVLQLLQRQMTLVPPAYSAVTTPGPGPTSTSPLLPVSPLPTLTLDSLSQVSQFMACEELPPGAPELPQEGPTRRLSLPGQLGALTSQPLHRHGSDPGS
- PROTOCOL_SUMMARY: Inhibition of hERG at 10 uM by Q-patch clamp method relative to control
- Type: toxicity
PROPERTY_MEASURED: inhibition at 10 µM (%)

>  <STRUCTURE_NOTATION>
C[C@H]1CCCN1C(=O)c1nc(C(=O)NCC(C)(C)O)sc1-c1ccc(C(O)(C(F)(F)F)C(F)(F)F)c(Cl)c1Cl

>  <PROPERTY_MEASURED>
inhibition at 10 µM

>  <RESULT_VALUE>
52

$$$$

---

Quick reference for pKd among some molecules
Target chain: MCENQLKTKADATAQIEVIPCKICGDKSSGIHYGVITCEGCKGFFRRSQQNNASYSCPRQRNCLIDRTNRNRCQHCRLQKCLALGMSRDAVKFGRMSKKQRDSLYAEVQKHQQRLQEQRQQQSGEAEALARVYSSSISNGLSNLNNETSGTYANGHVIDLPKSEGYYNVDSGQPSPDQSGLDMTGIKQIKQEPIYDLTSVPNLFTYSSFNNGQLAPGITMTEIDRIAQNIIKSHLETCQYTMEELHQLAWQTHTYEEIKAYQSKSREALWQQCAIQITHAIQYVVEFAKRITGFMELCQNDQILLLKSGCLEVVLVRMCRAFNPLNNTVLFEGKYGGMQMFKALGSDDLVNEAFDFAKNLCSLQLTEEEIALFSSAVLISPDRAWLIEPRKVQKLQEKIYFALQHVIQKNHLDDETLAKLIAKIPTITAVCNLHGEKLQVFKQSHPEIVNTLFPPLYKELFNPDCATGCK
pKd: −log10 of the molar value.
PROPERTY_MEASURED: pKd

>  <STRUCTURE_NOTATION>
CCN(C(=O)c1nc(C(=O)NCC(C)(C)O)sc1-c1ccc(C(O)(C(F)(F)F)C(F)(F)F)c(Cl)c1Cl)C1CCC1

>  <RESULT_VALUE>
5.96

$$$$
>  <STRUCTURE_NOTATION>
C[C@H]1C[C@@H](F)CCN1C(=O)c1nc(C(=O)NCC(C)(C)O)sc1-c1ccc(C(O)(C(F)(F)F)C(F)(F)F)c(Cl)c1Cl

>  <RESULT_VALUE>
6.00

$$$$
>  <STRUCTURE_NOTATION>
CCN(CC)C(=O)c1nc(C(=O)N2C[C@H](O)C[C@H](O)C2)sc1-c1ccc(C(O)(C(F)(F)F)C(F)(F)F)c(Cl)c1Cl

>  <RESULT_VALUE>
4.89

$$$$
>  <STRUCTURE_NOTATION>
Cc1cc(C(O)(C(F)(F)F)C(F)(F)F)ccc1-c1sc(C(=O)NCC(C)(C)O)nc1C(=O)N1CCCC[C@@H]1C

>  <RESULT_VALUE>
5.85

$$$$
>  <STRUCTURE_NOTATION>
Cc1cc(C(O)(C(F)(F)F)C(F)(F)F)ccc1-c1sc(C(=O)NCC(C)(C)O)nc1C(=O)N1CCC[C@@H]1C

>  <RESULT_VALUE>
4.82

$$$$
>  <STRUCTURE_NOTATION>
CCN(CC)C(=O)c1nc(C(=O)NCC(C)(C)O)sc1-c1ccc(C(O)(C(F)(F)F)C(F)(F)F)c(Cl)c1Cl

>  <RESULT_VALUE>
5.46

$$$$
>  <STRUCTURE_NOTATION>
C[C@H]1CC(F)(F)CN1C(=O)c1nc(C(=O)NCC(C)(C)O)sc1-c1ccc(C(O)(C(F)(F)F)C(F)(F)F)c(Cl)c1Cl

>  <RESULT_VALUE>
5.64

$$$$
>  <STRUCTURE_NOTATION>
CN(C(=O)c1nc(C(=O)NCC(C)(C)O)sc1-c1ccc(C(O)(C(F)(F)F)C(F)(F)F)c(Cl)c1Cl)C1CCC1

>  <RESULT_VALUE>
5.64

$$$$
>  <STRUCTURE_NOTATION>
CC(C)(O)CNC(=O)c1nc(C(=O)N2CCC(F)CC2)c(-c2ccc(C(O)(C(F)(F)F)C(F)(F)F)c(Cl)c2Cl)s1

>  <RESULT_VALUE>
5.72

$$$$
>  <STRUCTURE_NOTATION>
C[C@H]1CCCCN1C(=O)c1nc(C(=O)NCC(C)(C)O)sc1-c1ccc(C(O)(C(F)(F)F)C(F)(F)F)cc1C(F)F

>  <RESULT_VALUE>
6.07

$$$$
